assay: gradient 5% acetonitrile 3 min, to 50% in 2 min, to 85% in 15 min, held 3 min, 100 µL/min; conditions: column: Zorbax Extend-C18 2.1 x 50 mm; eluents: water / acetonitrile, 0.1% formic acid
Classification field: yes = RP-LC retention time at or over 700 s; no = RP-LC retention time under 700 s.

compound | discrete_label
CCc1ccccc1NC(=O)C1CCN(S(=O)(=O)c2cc(C(=O)N3CCCC3)cs2)CC1 | yes
CCn1cc(-c2nc(C(=O)NCc3cc(F)cc(F)c3)cs2)c2cccnc21 | yes
COCCC(=O)N1CC(F)(F)C[C@H]1c1nc(COC)no1 | no
COc1cc2nccc(Oc3ccc(NC(=O)C4(C(=O)Nc5ccc(F)cc5)CC4)cc3)c2cc1OC | yes

--- query ---
Task item: Threshold query (RP-LC retention time >= 700 s) on Cc1ccccc1-c1nc2nc(C)c(CC(=O)N3CCCC3)c(C)n2n1
Reply: yes

* * *

Assign RP-LC retention time to each entry below.
experiment: gradient 5% acetonitrile 3 min, to 50% in 2 min, to 85% in 15 min, held 3 min, 100 µL/min; settings: column: Zorbax Extend-C18 2.1 x 50 mm; eluents: water / acetonitrile, 0.1% formic acid
Numbers only, in s.

compound | RP-LC retention time / s
CNC(=O)c1ccc(Cn2cnc3cccnc32)cc1 | 572

# per-item lookup of RP-LC retention time; items listed below
1. O=C(c1cc(=O)n2c(nc3ccccc32)s1)N1CCN(c2ccccn2)CC1
2. Cc1nc(C)c(C(=O)NCC23CCCC=C2N(CC2CC2)C(=O)CC3)s1 (centres undefined)
3. Cc1cc(C)n(-c2ccnc(N3CCC(C(=O)NCCC(C)C)CC3)n2)n1
4. CCNC(=O)c1cc(=O)[nH]c2c(C)cccc12

Reply:
1. 634
2. 785
3. 836
4. 793

* * *

Assign RP-LC retention time to each entry below.
test: gradient 5% acetonitrile 3 min, to 50% in 2 min, to 85% in 15 min, held 3 min, 100 µL/min; conditions: column: Zorbax Extend-C18 2.1 x 50 mm; eluents: water / acetonitrile, 0.1% formic acid
One number for each entry, in s.

Check out these entries, answers already filled in.
compound | reading
CCOC(=O)c1c(C)[nH]c(C(=O)N2CCC(C(C)C(=O)NCc3ccc4c(c3)OCO4)CC2)c1C (configuration not stated) | 778
Cc1cc(S(=O)(=O)Nc2cccn3c(C4CCC4)nnc23)ccc1F | 822
CC(C)(C)c1noc(-c2ccnc(-n3cnc(C(=O)N4CCOCC4)c3)c2)n1 | 808
COc1cc(NC(=O)N2CCC3(CC2)N=C(c2cccc(F)c2)C(=O)N3)cc(OC)c1 | 822
CSc1ccc(-c2nc3ncccn3c2Nc2ccccc2)cc1 | 777

# per-item lookup of RP-LC retention time; items listed below
1. COC(=O)COc1cc(-c2ccc(F)cc2)nc2ccc(NC(=O)Cc3ccccc3)cc12
2. O=C(Cc1ccc(F)cc1)N1CCC2(CC1)N=C(c1ccccc1)NO2

Reply:
1: 809; 2: 792

* * *

test: gradient 5% acetonitrile 3 min, to 50% in 2 min, to 85% in 15 min, held 3 min, 100 µL/min; conditions: column: Zorbax Extend-C18 2.1 x 50 mm; eluents: water / acetonitrile, 0.1% formic acid
Assign RP-LC retention time to each entry below.
Numbers only, in s.

Check out these entries, answers already filled in.
compound | unit_of_measure | RP-LC retention time
CCc1nc2cc(-c3noc(-c4ccc5c(c4)OCO5)n3)ccc2o1 | s | 1150
CCc1noc(NC(C)=O)c1-c1ccc(C)c(S(=O)(=O)Nc2ccccc2F)c1 | s | 798
CCCNC(=O)C1CCN(c2ccc(SCC(=O)Nc3ccc(C(F)(F)F)cc3)nn2)CC1 | s | 728
Cc1noc(C)c1S(=O)(=O)N1CCC(n2c(C)cnc2-c2ccccc2)CC1 | s | 682
CSc1cccc(NC(=O)Cn2c(N3CCC(C)CC3)nc(C)cc2=O)c1 | s | 765

# per-item lookup of RP-LC retention time; items listed below
1. COc1ccccc1-c1noc(CCc2nnc3ccc(N4CCN(Cc5ccccc5)CC4)nn23)n1
2. CN(C)S(=O)(=O)c1ccc(-c2nnc(C(=O)NCc3ccccc3)o2)cc1
3. Cc1nc(CNC(=O)C2CCN(C(=O)Nc3ccc(C)c(Cl)c3)CC2)cs1
4. CCCCN(C)C(=O)c1cnc(-c2ccc(C)cc2)nc1-c1ccncc1
5. CC(C)c1ccc(S(=O)(=O)N2CCC(n3c(-c4ccoc4)nc4cccnc43)C2)cc1 (stereo not given)

Reply:
1. 616
2. 831
3. 714
4. 968
5. 1010

# per-item lookup of RP-LC retention time; items listed below
1. Cc1cc(C(=O)Nc2cccc(-c3ccc(N4CCOCC4)nn3)c2)c(C)o1
2. COc1ccc(NC(=O)CN2CCc3[nH]c4c(F)c(Cl)ccc4c(=O)c3C2)c(OC)c1
3. CCNc1nc(N(C)C)nc(-n2cnc(SC)n2)n1
4. CC(=O)N1CCN(CCOc2ccc(C3CCN(C4=Nn5c(nnc5C(F)(F)F)CC4)CC3)cc2)CC1
5. CN(CC1(C)CCOCC1)C(=O)c1c(F)cccc1Cl
6. Cc1ccc(Nc2ncccc2S(N)(=O)=O)cc1C
7. Cc1ccccc1Oc1nccn2c(=O)n(CC(=O)Nc3cc(F)ccc3F)nc12

Reply:
638
637
784
686
813
852
908

# per-item lookup of RP-LC retention time; items listed below
1. Cc1ccc(-c2ccc(N3CCN(c4ccccn4)CC3)nn2)cc1S(=O)(=O)N1CCC(C)CC1
2. CCC(C)NC(=O)Cn1cccc(-c2nc(-c3ccc(OC)c(OC)c3)no2)c1=O (stereo not given)
3. Nc1cc(C2CCN(S(=O)(=O)c3ccccc3)CC2)no1

Reply:
1. 743
2. 714
3. 732
